Target: Retinoic acid receptor alpha (Homo sapiens, UniProt P10276)
Sequence (P10276 whole entry): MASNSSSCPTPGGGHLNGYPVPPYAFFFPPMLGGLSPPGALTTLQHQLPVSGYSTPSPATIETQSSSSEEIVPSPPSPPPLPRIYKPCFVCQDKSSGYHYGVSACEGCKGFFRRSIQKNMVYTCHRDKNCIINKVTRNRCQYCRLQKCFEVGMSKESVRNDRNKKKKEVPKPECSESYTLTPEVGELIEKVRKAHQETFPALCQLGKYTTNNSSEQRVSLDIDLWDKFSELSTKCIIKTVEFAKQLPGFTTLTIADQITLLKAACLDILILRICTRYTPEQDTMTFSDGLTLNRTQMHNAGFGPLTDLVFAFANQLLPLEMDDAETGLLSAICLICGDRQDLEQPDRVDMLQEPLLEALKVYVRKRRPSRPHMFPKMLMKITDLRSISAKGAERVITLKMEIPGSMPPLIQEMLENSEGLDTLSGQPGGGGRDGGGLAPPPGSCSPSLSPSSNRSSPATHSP
Test: Antagonist activity at recombinant human RAR-alpha expressed in mammalian cells in presence of 9-cis-RA by luciferase reporter gene based transactivation assay
Type: cell-based
pIC50: −log10 of the molar value.
measure_name: pIC50

a = CC1(C)CC=C(c2ccc(CN3CCOCC3)cc2)c2cc(NC(=O)c3ccc(C(=O)O)cc3)ccc21
b = Cc1ccc(C2=CCC(C)(C)c3ccc(C(=O)Nc4ccc(C(=O)O)cc4)cc32)cc1
Prompt: Returns: the argument ( a or b ) having the larger pIC50. Write down the label attached to your selection.
Completion: b

###

As shown below, each of these compounds has a reported IC50 value.
Molecular target: Retinoic acid receptor beta (Homo sapiens, UniProt P10826)
Assay: Antagonist activity at recombinant human RAR-beta expressed in mammalian cells in presence of ATRA by luciferase reporter gene based transactivation assay

Cc1ccc(C2=CC(C)(C)Oc3ccc(S(=O)(=O)Nc4cc(F)c(C(=O)O)c(F)c4)cc32)cc1; > 3.3 µM

Note: attention shifts to another entry.
Prompt: Give IC50 for Cc1ccc(C2=CCC(C)(C)c3ccc(C(=O)NCc4ccc(C(=O)O)cc4)cc32)cc1 tested on Retinoic acid receptor beta (Homo sapiens, UniProt P10826).
Completion: > 3.3 µM

###

Target: Retinoic acid receptor alpha (Homo sapiens)
Experiment: Antagonist activity at recombinant human RAR-alpha expressed in mammalian cells in presence of 9-cis-RA by luciferase reporter gene based transactivation assay
Assay type: cell-based
pIC50: −log10 of the molar value.
measure_name: pIC50

a = CC1(C)CC=C(c2ccc(CN3CCOCC3)cc2)c2cc(C(=O)Nc3ccc(C(=O)O)cc3)ccc21
b = CC1(C)CC=C(c2cnc3ccccc3c2)c2cc(C(=O)Nc3ccc(C(=O)O)cc3)ccc21
c = CC1(C)CC=C(c2ccccc2)c2cc(C(=O)Nc3ccc(C(=O)O)cc3)ccc21
d = Cc1ccc(C2=CC(C)(C)Oc3ccc(C(=O)Nc4ccc(C(=O)O)cc4)cc32)cc1
Prompt: Hi! Can you put these in order of pIC50, lowest number first? Would you mind listing the labels in the order requested?
Completion: a, b, c, d

###

Measured IC50 by item
Target: Retinoic acid receptor beta (Homo sapiens, UniProt P10826)
Sequence (P10826 whole entry): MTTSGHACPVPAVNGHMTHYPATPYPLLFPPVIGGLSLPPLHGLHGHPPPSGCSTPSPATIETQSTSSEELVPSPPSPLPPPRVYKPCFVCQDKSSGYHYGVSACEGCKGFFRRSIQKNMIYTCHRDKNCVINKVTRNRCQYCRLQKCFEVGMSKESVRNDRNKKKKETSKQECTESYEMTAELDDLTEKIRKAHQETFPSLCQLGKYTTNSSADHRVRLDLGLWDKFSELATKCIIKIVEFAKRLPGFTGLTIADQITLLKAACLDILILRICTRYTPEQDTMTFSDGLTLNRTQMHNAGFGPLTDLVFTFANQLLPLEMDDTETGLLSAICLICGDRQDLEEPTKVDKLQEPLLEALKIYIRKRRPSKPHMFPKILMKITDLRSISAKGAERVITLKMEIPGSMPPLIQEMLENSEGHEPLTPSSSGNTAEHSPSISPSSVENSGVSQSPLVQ
Experiment: Antagonist activity at recombinant human RAR-beta expressed in mammalian cells in presence of ATRA by luciferase reporter gene based transactivation assay

CC1(C)CC=C(c2ccc(CN3CCOCC3)cc2)c2cc(C(=O)Nc3ccc(C(=O)O)cc3)ccc21; 0.173 µM
Cc1ccc(C2=CC(C)(C)Oc3ccc(NS(=O)(=O)c4ccc(C(=O)O)cc4)cc32)cc1; > 3.3 µM
Cc1ccc(C2=CC(C)(C)Oc3c(Br)cc(S(=O)(=O)Nc4cc(F)c(C(=O)O)c(F)c4)cc32)cc1; > 3.3 µM
CC1(C)CC=C(c2ccccc2)c2cc(C(=O)NCc3ccc(C(=O)O)cc3)ccc21; > 3.3 µM

Prompt: Tell me its IC50 given CC1(C)CC=C(c2cccs2)c2cc(C(=O)Nc3ccc(C(=O)O)cc3)ccc21 as the entry.
Completion: > 3.3 µM

Prompt: Answer with the recorded IC50 for the compound listed here: Cc1ccc(C2=CCC(C)(C)c3ccc(C(=O)Nc4cc(F)c(C(=O)O)c(F)c4)cc32)cc1
Completion: > 3.3 µM

Prompt: Answer with reported IC50 of CC1(C)CC=C(c2ccccc2)c2cc(C(=O)Nc3ccc(C(=O)O)cc3)ccc21
Completion: > 3.3 µM

Prompt: Please look at this compound and report its IC50: CC1(C)CC=C(c2ccccc2)c2cc(NC(=O)Nc3ccc(C(=O)O)cc3)ccc21
Completion: > 3.3 µM

Origin of the recorded values: ChEMBL document CHEMBL5634116
